All figures here come from PubChem BioAssay AID1963875.

Each entry below lists one item and its recorded viability, T/C value.
system: KRAS-mutant PDC complex spheroid viability; test: Anticancer human tumor 186277-243-T-J2-PDC patient-derived colon adenocarcinoma cell line growth inhibition [KRAS2]; conditions: second compound 0.1 µM; first compound 0.00316 µM; stronger effect = lower value
State just the number; it will be interpreted in %.

Example cases with answers are listed next.
{"columns": ["Compound", "Assayed target", "Unit descriptor", "viability, T/C"],
 "data": [
  ["CC(=O)Nc1cccc(-n2c(=O)n(C3CC3)c(=O)c3c(Nc4ccc(I)cc4F)n(C)c(=O)c(C)c32)c1 + CNCc1ccccc1-c1csc(C(C)Nc2nc(C)nc3cc(OC)c(OC)cc23)c1", "KRAS-mutant PDC complex spheroid viability", "%", 4.46],
  ["CC(=O)Nc1cccc(-n2c(=O)n(C3CC3)c(=O)c3c(Nc4ccc(I)cc4F)n(C)c(=O)c(C)c32)c1 + CC1OCC2(CCN(c3cnc(Sc4ccnc(N)c4Cl)c(N)n3)CC2)C1N", "KRAS-mutant PDC complex spheroid viability", "%", 5],
  ["CC(=O)Nc1cccc(-n2c(=O)n(C3CC3)c(=O)c3c(Nc4ccc(I)cc4F)n(C)c(=O)c(C)c32)c1 + C=CC(=O)N1CCN(c2nc(OCC3CCCN3C)nc3c2CCN(c2cccc4cccc(C)c24)C3)CC1CC#N", "KRAS-mutant PDC complex spheroid viability", "%", 6.76],
  ["CN(C)C/C=C/C(=O)Nc1cc2c(Nc3ccc(F)c(Cl)c3)ncnc2cc1O[C@H]1CCOC1 + C=CC(=O)N1CCN(c2nc(OCC3CCCN3C)nc3c2CCN(c2cccc4cccc(C)c24)C3)CC1CC#N", "KRAS-mutant PDC complex spheroid viability", "%", 94],
  ["CCN1CCN(Cc2ccc(Nc3ncc(F)c(-c4cc(F)c5nc(C)n(C(C)C)c5c4)n3)nc2)CC1 + CC1OCC2(CCN(c3cnc(Sc4ccnc(N)c4Cl)c(N)n3)CC2)C1N", "KRAS-mutant PDC complex spheroid viability", "%", 96.9],
  ["CN(C)C/C=C/C(=O)Nc1cc2c(Nc3ccc(F)c(Cl)c3)ncnc2cc1O[C@H]1CCOC1 + C=CC(=O)N1CCN(c2nc(=O)n(-c3c(C)ccnc3C(C)C)c3nc(-c4c(O)cccc4F)c(F)cc23)C(C)C1", "KRAS-mutant PDC complex spheroid viability", "%", 106],
  ["CN(C)C/C=C/C(=O)Nc1cc2c(Nc3ccc(F)c(Cl)c3)ncnc2cc1O[C@H]1CCOC1 + CNCc1ccccc1-c1csc(C(C)Nc2nc(C)nc3cc(OC)c(OC)cc23)c1", "KRAS-mutant PDC complex spheroid viability", "%", 110],
  ["CC(=O)Nc1cccc(-n2c(=O)n(C3CC3)c(=O)c3c(Nc4ccc(I)cc4F)n(C)c(=O)c(C)c32)c1 + COc1cc2nc(C)nc(NC(C)c3cc(N)cc(C(F)(F)F)c3)c2cc1OC1CCOC1", "KRAS-mutant PDC complex spheroid viability", "%", 4.55]
]}

Req: Could you tell me which viability, T/C is on file for CCN1CCN(Cc2ccc(Nc3ncc(F)c(-c4cc(F)c5nc(C)n(C(C)C)c5c4)n3)nc2)CC1 + CNCc1ccccc1-c1csc(C(C)Nc2nc(C)nc3cc(OC)c(OC)cc23)c1 ?
Resp: 97.5

Req: Could you tell me which viability, T/C is on file for Cn1ncnc1[C@H]1c2n[nH]c(=O)c3cc(F)cc(c23)N[C@@H]1c1ccc(F)cc1 + COc1cc2nc(C)nc(NC(C)c3cc(N)cc(C(F)(F)F)c3)c2cc1OC1CCOC1 ?
Resp: 106

----------
Test system: KRAS-mutant PDC complex spheroid viability
Assay: Anticancer human tumor 186277-243-T-J2-PDC cell line growth inhibition [KRAS2];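 for viability, T/C: viability read after seven days of compound exposure; 100% = DMSO vehicle-treated spheroids so lower means less viable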
Details: second compound 1 µM; first compound 10 µM; stronger effect = lower value
From the text: Multicellular complex tumor spheroid response to RAS pathway inhibitors in combination with a targeted agents in patient-derived cell lines with oncogenic KRAS variants from multiple cancer types A high-throughput screen of multi-cell type tumor spheroids was designed to identify active combinations of targeted small molecules and KRAS pathway inhibitors. […] Compounds. […] If the clinical Cmax for an agent had not been determined, the highest concentration tested was 10 microM. […]
Outcome measure: viability, T/C

Example cases with answers are listed next.
{"columns": ["Compound", "viability, T/C"],
 "data": [
  ["COc1cc2nccc(Oc3ccc(NC(=O)C4(C(=O)Nc5ccc(F)cc5)CC4)cc3)c2cc1OC + C=CC(=O)N1CCN(c2nc(OCC3CCCN3C)nc3c2CCN(c2cccc4cccc(C)c24)C3)CC1CC#N", "0.37%"],
  ["COc1cc2nccc(Oc3ccc(NC(=O)C4(C(=O)Nc5ccc(F)cc5)CC4)cc3)c2cc1OC + CNCc1ccccc1-c1csc(C(C)Nc2nc(C)nc3cc(OC)c(OC)cc23)c1", "2.01%"]
]}

Req: Could you tell me which viability, T/C is on file for CCNC(=O)CC1N=C(c2ccc(Cl)cc2)c2cc(OC)ccc2-n2c(C)nnc21 (stereo not drawn) + CC1OCC2(CCN(c3cnc(Sc4ccnc(N)c4Cl)c(N)n3)CC2)C1N ?
Resp: 8.15%

----------
test system: KRAS-mutant PDC complex spheroid viability; assay: Anticancer human tumor 186277-243-T-J2-PDC cell line growth inhibition [KRAS2]; conditions: second compound 3.16 µM; first compound 0.316 µM; active means viability on the fitted dose curve at most 10% of control; inactive means the rest
Answer with one of the outcomes given here: class 1 = active, class 0 = inactive

The following molecules have reported results that may help.
{"columns": ["Molecule", "Class assignment"],
 "data": [
  ["CC1COCCN1c1cc(-c2ccnn2C)c2ccnc(-c3ccn[nH]3)c2n1 (stereo not given) + CNCc1ccccc1-c1csc(C(C)Nc2nc(C)nc3cc(OC)c(OC)cc23)c1", "class 1"],
  ["CC1COCCN1c1cc(-c2ccnn2C)c2ccnc(-c3ccn[nH]3)c2n1 (stereo not given) + C=CC(=O)N1CCN(c2nc(=O)n(-c3c(C)ccnc3C(C)C)c3nc(-c4c(O)cccc4F)c(F)cc23)C(C)C1", "class 1"],
  ["CC(=O)OC12COC1CC(O)C1(C)C(=O)C(O)C3=C(C)C(OC(=O)C(O)C(NC(=O)OC(C)(C)C)c4ccccc4)CC(O)(C(OC(=O)c4ccccc4)C21)C3(C)C (stereo not given) + C=CC(=O)N1CCN(c2nc(OCC3CCCN3C)nc3c2CCN(c2cccc4cccc(C)c24)C3)CC1CC#N", "class 1"],
  ["COc1cc(Nc2ncc3c(n2)-c2ccc(Cl)cc2C(c2c(F)cccc2OC)=NC3)ccc1C(=O)O + COc1cc2nc(C)nc(NC(C)c3cc(N)cc(C(F)(F)F)c3)c2cc1OC1CCOC1", "class 0"],
  ["COC(=O)c1ccc2c(C(=Nc3ccc(N(C)C(=O)CN4CCN(C)CC4)cc3)c3ccccc3)c(O)[nH]c2c1 + CC1OCC2(CCN(c3cnc(Sc4ccnc(N)c4Cl)c(N)n3)CC2)C1N", "class 0"],
  ["CC1OCC2(CCN(c3cnc(Sc4ccnc(N)c4Cl)c(N)n3)CC2)C1N (stereo not given) + C=CC(=O)N1CCN(c2nc(OCC3CCCN3C)nc3c2CCN(c2cccc4cccc(C)c24)C3)CC1CC#N", "class 1"],
  ["CC(=O)OC12COC1CC(O)C1(C)C(=O)C(O)C3=C(C)C(OC(=O)C(O)C(NC(=O)OC(C)(C)C)c4ccccc4)CC(O)(C(OC(=O)c4ccccc4)C21)C3(C)C (stereo not given) + C=CC(=O)N1CCN(c2nc(=O)n(-c3c(C)ccnc3C(C)C)c3nc(-c4c(O)cccc4F)c(F)cc23)C(C)C1", "class 1"],
  ["COC(=O)c1ccc2c(C(=Nc3ccc(N(C)C(=O)CN4CCN(C)CC4)cc3)c3ccccc3)c(O)[nH]c2c1 + CNCc1ccccc1-c1csc(C(C)Nc2nc(C)nc3cc(OC)c(OC)cc23)c1", "class 1"]
]}

Req: Field: outcome | Entry: CCN1CCN(Cc2ccc(Nc3ncc(F)c(-c4cc(F)c5nc(C)n(C(C)C)c5c4)n3)nc2)CC1 + C=CC(=O)N1CCN(c2nc(=O)n(-c3c(C)ccnc3C(C)C)c3nc(-c4c(O)cccc4F)c(F)cc23)C(C)C1
Resp: class 0

----------
tested on: KRAS-mutant PDC complex spheroid viability; assay: Anticancer human tumor 186277-243-T-J2-PDC cell line growth inhibition [KRAS2]; conditions: curve of first compound; second compound 3.16 µM
Each entry below lists one item and its recorded pIC50 value.
Notebook: values listed as pIC50 are -log10 of the concentration (mol/L).

{"columns": ["Compound", "pIC50"],
 "data": [
  ["CC(C)NCC(C(=O)N1CCN(c2ncnc3c2C(C)CC3O)CC1)c1ccc(Cl)cc1 (configuration not stated) + COc1cc2nc(C)nc(NC(C)c3cc(N)cc(C(F)(F)F)c3)c2cc1OC1CCOC1", 6.24]
]}

Req: Lookup: pIC50 / KRAS-mutant PDC complex spheroid viability / CC1(C)CCC(CN2CCN(c3ccc(C(=O)NS(=O)(=O)c4ccc(NCC5CCOCC5)c([N+](=O)[O-])c4)c(Oc4cnc5[nH]ccc5c4)c3)CC2)=C(c2ccc(Cl)cc2)C1 + C=CC(=O)N1CCN(c2nc(=O)n(-c3c(C)ccnc3C(C)C)c3nc(-c4c(O)cccc4F)c(F)cc23)C(C)C1
Resp: 5.77
